System Under Test: PKC isozyme β1 (Homo sapiens, UniProt P05771)
Construct: endogenous in cells; host or cells: HL-60
Sequence (P05771 whole entry): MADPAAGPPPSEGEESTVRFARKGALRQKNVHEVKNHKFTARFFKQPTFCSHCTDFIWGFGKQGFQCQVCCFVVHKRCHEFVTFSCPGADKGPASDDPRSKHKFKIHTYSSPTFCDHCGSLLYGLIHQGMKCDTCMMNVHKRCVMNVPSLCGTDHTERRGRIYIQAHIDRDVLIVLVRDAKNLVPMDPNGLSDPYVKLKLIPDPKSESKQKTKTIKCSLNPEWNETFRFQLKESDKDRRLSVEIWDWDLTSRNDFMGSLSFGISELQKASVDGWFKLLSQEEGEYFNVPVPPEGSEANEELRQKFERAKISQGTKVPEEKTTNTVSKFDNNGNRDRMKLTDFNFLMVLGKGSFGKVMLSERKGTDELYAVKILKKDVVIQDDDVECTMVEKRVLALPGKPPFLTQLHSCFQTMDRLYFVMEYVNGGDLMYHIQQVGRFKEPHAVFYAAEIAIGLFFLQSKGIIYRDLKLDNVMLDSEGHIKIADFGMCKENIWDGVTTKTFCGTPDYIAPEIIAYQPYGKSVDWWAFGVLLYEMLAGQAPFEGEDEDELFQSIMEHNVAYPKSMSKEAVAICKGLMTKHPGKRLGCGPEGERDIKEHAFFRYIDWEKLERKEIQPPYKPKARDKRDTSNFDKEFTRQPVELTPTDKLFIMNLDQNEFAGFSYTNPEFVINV
Test Summary: PMA-induced PKC translocation in HL-60 cells (Western blot)
Type: cell-based
Set-up: key: +++: strong inhibition of PKC activation; −: no inhibition of PKC activation
Measurement Context: 20 μM, 60 min

- Molecule: "CC/C=C\\C/C=C\\C/C=C\\C/C=C\\C/C=C\\C/C=C\\CCC[N+](=O)[O-] [Lx5]"
  Inhibition of PKC activation, isozyme β1: "−"
- Molecule: "CC/C=C\\C/C=C\\C/C=C\\CCCCCCCC[N+](=O)[O-] [Lx2]"
  Inhibition of PKC activation, isozyme β1: "−"
- Molecule: "CCCCC/C=C\\C/C=C\\C/C=C\\CCCCC[N+](=O)[O-] [Lx3]"
  Inhibition of PKC activation, isozyme β1: "−"
- Molecule: "CCCCC/C=C\\C/C=C\\C/C=C\\C/C=C\\CCCC[N+](=O)[O-] [Lx4]"
  Inhibition of PKC activation, isozyme β1: "+++"
